tested on: TLR2 induced IL-6 in peripheral blood mononuclear cells (PBMCs); assay: PBMC TLR2 Induced IL-6 Assay; type: cell-based, human; conditions: Homo sapiens, PBMC, 5 h, human PBMCs, 10 μg/ml lipoteichoic acid for 5 hours, IL-6 by ELISA; value without asterisk; read-out: Cell IC50
outcome-measure: IC50 (nM)

compound="CC(C)(O)[C@H](F)CNC(=O)c1cnc(Nc2ccc3nccnc3c2)cc1NC1CC2CCC1C2 (some centres unmarked)" assay_value=58
compound=CCCNc1cc(Nc2ccc3ncsc3c2)ncc1C(=O)NC[C@@H](F)C(C)(C)O assay_value=146
compound=CC(C)(F)CNc1cc(Nc2ccc3ncccc3c2)ncc1C(=O)NC[C@@H](F)C(C)(C)O assay_value=472
compound=CC(C)Nc1cc(Nc2ccc3ncsc3c2)ncc1C(=O)N[C@H]1CC[C@H](C(=O)NC2CC2)CC1 assay_value=138
compound="CC(C)(O)[C@H](F)CNC(=O)c1cnc(Nc2ccn3nccc3n2)cc1NC1CC2CC2C1(F)F (some centres unmarked)" assay_value=239
compound=CC(=O)N[C@H](C)CCNC(=O)c1cnc(Nc2ccc3ncsc3c2)cc1NC(C)C assay_value=415
compound="CN1CCCC1CCNC(=O)c1cnc(Nc2ccc3ncsc3c2)cc1NC1CCCC1 (centres unmarked)" assay_value=386
compound=CC(C)(O)[C@H](F)CNC(=O)c1cnc(Nc2nc3scnc3cc2F)cc1NCC(F)(F)F assay_value=634

* * *

pIC50: −log10 of the molar value.
Each entry below carries its measured pIC50, system: IRAK4 (Homo sapiens (Human)).
Sequence (Q9NWZ3 whole entry, species assumed): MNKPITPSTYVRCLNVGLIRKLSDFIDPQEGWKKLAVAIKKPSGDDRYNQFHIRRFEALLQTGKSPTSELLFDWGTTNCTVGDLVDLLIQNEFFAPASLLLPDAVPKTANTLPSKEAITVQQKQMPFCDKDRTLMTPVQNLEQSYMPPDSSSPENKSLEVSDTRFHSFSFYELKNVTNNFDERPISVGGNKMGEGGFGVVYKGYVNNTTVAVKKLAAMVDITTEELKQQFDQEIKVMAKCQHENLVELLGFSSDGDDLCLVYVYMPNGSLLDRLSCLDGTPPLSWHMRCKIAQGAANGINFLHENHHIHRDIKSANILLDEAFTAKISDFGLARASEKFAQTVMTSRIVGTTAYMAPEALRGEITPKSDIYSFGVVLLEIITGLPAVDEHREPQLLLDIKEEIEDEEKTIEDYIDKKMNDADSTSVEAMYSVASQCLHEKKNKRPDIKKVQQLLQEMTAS
outcome-measure: pIC50

molecule=CC(=O)N[C@@H](C)CCNC(=O)c1cnc(Nc2ccc3ncsc3c2)cc1NC(C)C assay_value=7.86
molecule=CC(=O)NCCNC(=O)c1cnc(Nc2ccc3ncsc3c2)cc1NC1CCCC1 assay_value=8.12
molecule="O=C(NC[C@@H](F)CO)c1cnc(Nc2ccc3ncsc3c2)cc1NC1CCCC1O (stereo partly drawn)" assay_value=8.24
molecule=CC(C)(O)[C@H](F)CNC(=O)c1cnc(Nc2ccc3ncsc3c2)cc1NCCC1CC1 assay_value=8.59
molecule=CC(C)Nc1cc(Nc2ccc3ncsc3n2)ncc1C(=O)NC[C@@H](F)C(C)(C)O assay_value=8.72
molecule="CNC(=O)c1cnc(Nc2ccc3ncsc3c2)cc1NC1C2CC3CC1CC(O)(C3)C2 (single isomer, unassigned) [Example 146]" assay_value=7.27
molecule="CC(C)(O)[C@H](F)CNC(=O)c1cnc(Nc2ccc3ncccc3n2)cc1NC1CCCC1F (stereo partly drawn)" assay_value=8.11
molecule=CC(C)Nc1cc(Nc2ccc3ncsc3c2)ncc1C(=O)NCC[C@@H](C)NC(=O)N(C)c1ccccc1 assay_value=8.43
molecule="CC(C)(O)[C@H](F)CNC(=O)c1cnc(Nc2ccc3nccn3n2)cc1NC1CCOCC1F (stereo partly drawn)" assay_value=8.15
molecule=CC(C)Nc1cc(Nc2ccc3ncsc3c2)ncc1C(=O)NCC[C@@H](C)NC(=O)OC(C)(C)C assay_value=8.29
molecule=CC(C)(F)CNc1cc(Nc2ccn3ncc(Cl)c3n2)ncc1C(=O)NC[C@@H](F)C(C)(C)O assay_value=8.34
molecule="CC(C)C(O)[C@H](F)CNC(=O)c1cnc(Nc2ccc3ncsc3c2)cc1N[C@@H]1CCC[C@H]1O (stereo partly drawn)" assay_value=8.51
molecule=CCCNC(=O)c1ccc(Nc2cc(Nc3ccc4ncsc4c3)ncc2C(=O)NC[C@@H](F)C(C)(C)O)cc1 assay_value=7.89
molecule=COc1ncnc2ccc(Nc3cc(NC4CC4)c(C(=O)NC[C@@H](F)C(C)(C)O)cn3)cc12 assay_value=7.98
molecule="CC(C)(O)C1CC(Nc2cc(Nc3ccc4ncsc4c3)ncc2C(=O)NC[C@@H](F)C(O)(C2CC2)C(F)(F)F)C1 (stereo partly drawn)" assay_value=7.82
